- PROTOCOL DETAILS: PK study in male Sprague Dawley rats, IV 1 mg/kg and PO 10 mg/kg (Example 4)
- Assay type: in vivo
- CONDITION LABEL: male, Sprague-Dawley, rat, in vivo, iv, 1 mg/kg, Vss
METRIC: Vd (L/kg)
# output: bare number, implied unit L/kg

Vd for Cc1cc(Nc2cc(N)ncn2)c(=O)n2c1C(=O)NC21CCC2(CC2)CC1 [4ET-03-053] is 0.136

* * *

- PROTOCOL DETAILS: Plasma and brain concentrations, brain:plasma ratio 24 hr after last of five daily 1 mg/kg PO doses (Example 6)
- Format: in vivo, rats
- CONDITION LABEL: male, Sprague-Dawley, rat, brain homogenate, oral, 1 mg/kg, rats, brain homogenate, 24 hr after the last 1 mg/kg PO dose on day 5; mean; read-out: Tissue Homogenate Conc., Mean
METRIC: concentration at 24 h (ng/mL)
State the answer as a number, implicitly in ng/mL.

The molecule Cc1cc(Nc2cc(N)ncn2)c(=O)n2c1C(=O)NC21CCC2(CC2)CC1 [4ET-03-053] showed concentration at 24 h equal to 6.02

* * *

- PROTOCOL DETAILS: PK study in male Sprague-Dawley rats dosed once per day for five days, PO 25 mg/kg, 0.5% HPMC (Example 8)
- Assay type: in vivo
- CONDITION LABEL: male, Sprague-Dawley, rat, in vivo, po, 25 mg/kg, single PO 25 mg/kg dose, 0.5% HPMC suspension, individual animals, read-out: Cmax
METRIC: Cmax (ng/mL)
Express your answer in ng/mL, writing the number without its unit.

Entry under test: Cc1cc(Nc2cc(N)ncn2)c(=O)n2c1C(=O)NC21CCC2(CC2)CC1 . Its Cmax was 24400

* * *

- PROTOCOL DETAILS: PK study in male Sprague-Dawley rats dosed once per day for five days, PO 10 mg/kg, 0.5% HPMC (Example 7)
- Format: in vivo
- CONDITION LABEL: male, Sprague-Dawley, rat, in vivo, po, 10 mg/kg, Sprague-Dawley rats, following five daily PO doses of 10 mg/kg, 0.5% HPMC suspension
METRIC: bioavailability

Looking up Cc1cc(Nc2cc(N)ncn2)c(=O)n2c1C(=O)NC21CCC2(CC2)CC1 , I see its bioavailability listed as 59.9%

* * *

- PROTOCOL DETAILS: PK study in male Sprague-Dawley rats dosed once per day for five days, PO 1 mg/kg, 0.5% HPMC (Example 6)
- Format: in vivo
- CONDITION LABEL: male, Sprague-Dawley, rat, in vivo, po, 1 mg/kg, Sprague-Dawley rats, day 5 of daily PO 1 mg/kg, 0.5% HPMC suspension; mean (n = 3); read-out: Cmax
METRIC: Cmax (ng/mL)
State just the number; it will be interpreted in ng/mL.

Recorded result, Cc1cc(Nc2cc(N)ncn2)c(=O)n2c1C(=O)NC21CCC2(CC2)CC1 , Cmax: 4400

* * *

- PROTOCOL DETAILS: PK study in male Sprague-Dawley rats dosed once per day for five days, PO 10 mg/kg, 0.5% HPMC (Example 7)
- Format: in vivo
- CONDITION LABEL: male, Sprague-Dawley, rat, in vivo, po, 10 mg/kg, male Sprague-Dawley rats, single PO 10 mg/kg dose, 0.5% HPMC suspension; individual animals
METRIC: AUC(0-t) (µg·h/mL)
Your answer is read as µg·h/mL, so omit the unit and give the number.

AUC(0-t) in this record for Cc1cc(Nc2cc(N)ncn2)c(=O)n2c1C(=O)NC21CCC2(CC2)CC1 [4ET-03-053] : 247

* * *

- PROTOCOL DETAILS: PK study in male Sprague Dawley rats, IV 1 mg/kg and PO 10 mg/kg (Example 4)
- Format: in vivo
- CONDITION LABEL: male, Sprague Dawley, rat, in vivo, iv, 1 mg/kg, Vss
METRIC: Vd (L/kg)
Give a bare numeral; the unit L/kg is implied.

For this compound ( Cc1cc(Nc2cc(N)ncn2)c(=O)n2c1C(=O)NC21CCC2(CC2)CC1 [4ET-03-053] ), measured Vd is 0.15

* * *

- PROTOCOL DETAILS: PK study in male Sprague-Dawley rats dosed once per day for five days, PO 10 mg/kg, 0.5% HPMC (Example 7)
- Assay type: in vivo
- CONDITION LABEL: male, Sprague-Dawley, rat, in vivo, po, 10 mg/kg, Sprague-Dawley rats, day five of daily PO 10 mg/kg, 0.5% HPMC suspension; mean (n = 3)
- Method: Example 7. PK study of 4ET-03-053 in male Sprague-Dawley rats dosed once per day for five days (P0; 10 mg/kg; 0.5%0HPMC aqueous suspension) Table 21 provides plasma and brain concentrations at 24 hr after the last dose of five daily P0 doses of 4ET-03-053.
METRIC: Tmax (h)
Please state the figure in h; there is no need to write the unit.

Record summary for Cc1cc(Nc2cc(N)ncn2)c(=O)n2c1C(=O)NC21CCC2(CC2)CC1 : reported Tmax = 1.67

* * *

- PROTOCOL DETAILS: PK study in male Sprague Dawley rats, IV 1 mg/kg and PO 10 mg/kg (Example 4)
- Assay type: in vivo
- CONDITION LABEL: male, Sprague Dawley, rat, in vivo, iv, 1 mg/kg
METRIC: C0 (ng/mL)
The answer is to be given in ng/mL; state only the numeric part.

Lab note: Cc1cc(Nc2cc(N)ncn2)c(=O)n2c1C(=O)NC21CCC2(CC2)CC1 gave C0 of 7730

* * *

- PROTOCOL DETAILS: PK study in male Sprague-Dawley rats dosed once per day for five days, PO 1 mg/kg, 0.5% HPMC (Example 6)
- Type: in vivo
- CONDITION LABEL: male, Sprague-Dawley, rat, in vivo, po, 1 mg/kg, male Sprague-Dawley rats, single (first) PO 1 mg/kg dose, 0.5% HPMC suspension; individual animals
METRIC: MRT inf (h)
Give the number; h is assumed, so skip it.

MRT inf for Cc1cc(Nc2cc(N)ncn2)c(=O)n2c1C(=O)NC21CCC2(CC2)CC1 is 8.25

* * *

- PROTOCOL DETAILS: PK study in male Sprague-Dawley rats dosed once per day for five days, PO 1 mg/kg, 0.5% HPMC (Example 6)
- Type: in vivo
- CONDITION LABEL: male, Sprague-Dawley, rat, in vivo, po, 1 mg/kg, Sprague-Dawley rats, after five daily PO doses of 1 mg/kg, 0.5% HPMC suspension; read-out: total systemic exposure (AUCinf)
METRIC: AUC(0-inf) (ng·h/mL)
Please give a number only; it is taken to be in ng·h/mL.

Kindly note the recorded AUC(0-inf) for Cc1cc(Nc2cc(N)ncn2)c(=O)n2c1C(=O)NC21CCC2(CC2)CC1 [4ET-03-053] , which is 43200

* * *

- PROTOCOL DETAILS: Plasma and brain concentrations, brain to plasma ratio 24 hr after last of five 10 mg/kg PO doses (Example 7)
- Type: in vivo
- CONDITION LABEL: male, Sprague-Dawley, rat, plasma, oral, 10 mg/kg, rats, plasma, 24 hr after the last of five 10 mg/kg PO doses; mean; read-out: Plasma Conc., Mean
METRIC: concentration at 24 h

Summary for this compound, Cc1cc(Nc2cc(N)ncn2)c(=O)n2c1C(=O)NC21CCC2(CC2)CC1 [4ET-03-053] : concentration at 24 h is 2670 ng/mL

* * *

- PROTOCOL DETAILS: PK study in male Sprague Dawley rats, IV 1 mg/kg and PO 10 mg/kg (Example 4)
- Format: in vivo
- CONDITION LABEL: male, Sprague-Dawley, rat, in vivo, po, 10 mg/kg, AUClast
METRIC: AUC(0-t) (µg·h/mL)
Give the value in µg·h/mL but do not write µg·h/mL after it.

AUC(0-t) for Cc1cc(Nc2cc(N)ncn2)c(=O)n2c1C(=O)NC21CCC2(CC2)CC1 [4ET-03-053] is 194

* * *

- PROTOCOL DETAILS: PK study in male Sprague-Dawley rats dosed once per day for five days, PO 1 mg/kg, 0.5% HPMC (Example 6)
- Type: in vivo
- CONDITION LABEL: male, Sprague-Dawley, rat, in vivo, po, 1 mg/kg, Sprague-Dawley rats, after five daily PO doses of 1 mg/kg, 0.5% HPMC suspension
METRIC: bioavailability (%)
Quick reminder: number only, in %, skip the unit.

response.value for Cc1cc(Nc2cc(N)ncn2)c(=O)n2c1C(=O)NC21CCC2(CC2)CC1 [4ET-03-053] (field: bioavailability) = 84

* * *

- PROTOCOL DETAILS: PK study in male Sprague-Dawley rats dosed once per day for five days, PO 1 mg/kg, 0.5% HPMC (Example 6)
- Assay type: in vivo
- CONDITION LABEL: male, Sprague-Dawley, rat, in vivo, po, 1 mg/kg, male Sprague-Dawley rats, single (first) PO 1 mg/kg dose, 0.5% HPMC suspension; mean (n = 3)
METRIC: Tmax
Just so you know, I need the unit written after the number.

Consider Cc1cc(Nc2cc(N)ncn2)c(=O)n2c1C(=O)NC21CCC2(CC2)CC1 [4ET-03-053] . Its measured Tmax is 2 h
